Data provenance is patent US10385024B2.

molecular target: human NHE-3 (Homo sapiens, UniProt P48764); construct: expressed in transfected cells; host or cells: Opossum kidney (OK) cells (ATCC), transfected by electroporation; assay: Cell-based assay of NHE-3 activity (human NHE3 inhibition assay); conditions: OK cells with human NHE-3 gene, BCECF pH dye, 0-30 μM test compound; read-out: Human NHE3 pIC50 (converted)
Sequence (P48764 26-834): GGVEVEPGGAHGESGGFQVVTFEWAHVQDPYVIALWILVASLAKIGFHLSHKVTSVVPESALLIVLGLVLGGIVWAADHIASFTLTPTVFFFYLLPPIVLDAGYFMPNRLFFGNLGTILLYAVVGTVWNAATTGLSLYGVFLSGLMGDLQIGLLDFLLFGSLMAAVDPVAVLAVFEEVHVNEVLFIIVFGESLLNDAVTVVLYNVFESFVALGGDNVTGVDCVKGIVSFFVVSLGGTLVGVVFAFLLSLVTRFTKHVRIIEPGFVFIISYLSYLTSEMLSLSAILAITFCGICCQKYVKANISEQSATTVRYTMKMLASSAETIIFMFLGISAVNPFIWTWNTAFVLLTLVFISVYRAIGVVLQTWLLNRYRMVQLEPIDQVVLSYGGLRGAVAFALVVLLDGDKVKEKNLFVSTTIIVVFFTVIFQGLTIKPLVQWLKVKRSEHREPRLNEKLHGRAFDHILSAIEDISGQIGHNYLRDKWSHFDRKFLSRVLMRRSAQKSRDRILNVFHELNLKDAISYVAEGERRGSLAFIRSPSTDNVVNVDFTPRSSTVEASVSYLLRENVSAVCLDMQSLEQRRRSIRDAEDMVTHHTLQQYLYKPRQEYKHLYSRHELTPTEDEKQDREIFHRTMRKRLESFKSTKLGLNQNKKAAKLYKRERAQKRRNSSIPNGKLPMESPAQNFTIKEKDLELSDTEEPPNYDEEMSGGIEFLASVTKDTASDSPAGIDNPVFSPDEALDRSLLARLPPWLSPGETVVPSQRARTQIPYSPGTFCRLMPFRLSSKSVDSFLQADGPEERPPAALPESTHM
Listed here: items and their measured IC50.

Solved entries:
{"columns": ["Test Smiles", "IC50"],
 "data": [
  ["CN1Cc2c(Cl)cc(Cl)cc2[C@H](c2cccc(S(=O)(=O)NCCOCCOCCNC(=O)CCC(CCC(=O)NCCOCCOCCNS(=O)(=O)c3cccc([C@@H]4CN(C)Cc5c(Cl)cc(Cl)cc54)c3)(CCC(=O)NCCOCCOCCNS(=O)(=O)c3cccc([C@@H]4CN(C)Cc5c(Cl)cc(Cl)cc54)c3)NS(C)(=O)=O)c2)C1", "0.1 to 10 µM"],
  ["CN1Cc2c(Cl)cc(Cl)cc2[C@H](c2cccc(S(=O)(=O)NCCOCCOCCOCCn3cc(CN(Cc4cn(CCOCCOCCOCCNS(=O)(=O)c5cccc([C@@H]6CN(C)Cc7c(Cl)cc(Cl)cc76)c5)nn4)Cc4cn(CCOCCOCCOCCNS(=O)(=O)c5cccc([C@@H]6CN(C)Cc7c(Cl)cc(Cl)cc76)c5)nn4)nn3)c2)C1", "0.1 to 10 µM"]
]}

API: the following record is the query input.
Noted for CN1Cc2c(Cl)cc(Cl)cc2[C@H](c2cccc(S(=O)(=O)NCCOCCOCCNC(=O)CCC(CCC(=O)NCCOCCOCCNS(=O)(=O)c3cccc([C@@H]4CN(C)Cc5c(Cl)cc(Cl)cc54)c3)(CCC(=O)NCCOCCOCCNS(=O)(=O)c3cccc([C@@H]4CN(C)Cc5c(Cl)cc(Cl)cc54)c3)NC(=O)N[C@@H](CC(=O)O)C(=O)O)c2)C1 : its IC50 reads < 0.1 µM
